- Tested on: HT-22
- ASSAY_DETAILS: Neuroprotective activity against amyloid beta (1 to 42 residues)-induced cell death in mouse HT22 cells assessed as increase in cell viability at 20 uM after 24 hrs by MTT assay (reference value: 51.2%)
- Format: functional
Please provide measured Activity for the entries that follow.
Numbers only, in %.

Take a look at these entries with their results.
| COMPOUND | Activity / % |
| --- | --- |
| CC(C)(O)C1CC[C@]2(C)[C@H](CC=C3[C@@H]4C[C@](C)(CO)CC[C@]4(O)C(=O)C[C@]32C)[C@@]1(C)CCC(=O)O (some centres not stated) | 68.9 |
| CC1(C)CC[C@]2(C(=O)O)C(=O)C[C@]3(C)C(=CC[C@@H]4[C@@]5(C)CC[C@H](O[C@@H]6O[C@H](C(=O)O)[C@@H](O)[C@H](O[C@@H]7O[C@H](CO)[C@@H](O)[C@H](O)[C@H]7O[C@@H]7O[C@H](CO)[C@@H](O)[C@H](O)[C@H]7O)[C@H]6O[C@H]6O[C@@H](CO)[C@H](O)[C@@H](O)[C@@H]6O)C(C)(C)[C@@H]5CC[C@]43C)[C@@H]2C1 | 61.7 |
| CC1(C)CC[C@]2(CO)C(=O)C[C@]3(C)C(=CC[C@@H]4[C@@]5(C)CC[C@H](O[C@@H]6O[C@H](C(=O)O)[C@@H](O)[C@H](O)[C@H]6O)C(C)(C)[C@@H]5CC[C@]43C)[C@@H]2C1 | 55.5 |
| CC(C)(O)C1C[C@H](O)[C@]2(C)[C@H](CC=C3[C@@H]4C[C@](C)(CO)CC[C@]4(O)C(=O)C[C@]32C)[C@@]1(C)CCC(=O)O (some centres not stated) | 68.9 |
| C=C(C)C1CC[C@]2(C)[C@H](CC=C3[C@@H]4C[C@](C)(CO)CC[C@]4(O)C(=O)C[C@]32C)[C@@]1(C)CCC(=O)O (some centres not stated) | 68.9 |
| COC(=O)CC[C@@]1(C)C(C(C)(C)O)C[C@H](O)[C@]2(C)[C@@H]1CC=C1[C@@H]3CC(C)(C)CC[C@]3(O)C(=O)C[C@]12C (some centres not stated) | 68.9 |
| CC1(C)CC[C@]2(O)C(=O)C[C@]3(C)C(=CC[C@@H]4[C@@]5(C)CC[C@H](O[C@@H]6O[C@H](C(=O)O)[C@@H](O)[C@H](O[C@@H]7O[C@H](CO)[C@@H](O)[C@H](O)[C@H]7O[C@@H]7O[C@H](CO)[C@@H](O)[C@H](O)[C@H]7O)[C@H]6O)C(C)(C)[C@@H]5CC[C@]43C)[C@@H]2C1 | 68.9 |
| COC(=O)CC[C@@]1(C)C(C(C)(C)O)C[C@H](O)[C@]2(C)[C@@H]1CC=C1[C@@H]3C[C@](C)(CO)CC[C@]3(O)C(=O)C[C@]12C (some centres not stated) | 68.9 |

The following compounds each have a reported value; give each one's Activity.
1. COC(=O)CC[C@@]1(C)C(C(C)(C)O)CC[C@]2(C)[C@@H]1CC=C1[C@@H]3C[C@](C)(CO)CC[C@]3(O)C(=O)C[C@]12C (some centres not stated)
2. COC(=O)CC[C@@]1(C)C(C(C)(C)O)CC[C@]2(C)[C@@H]1CC=C1[C@@H]3C[C@](C)(CO)CC[C@]3(CO)C(=O)C[C@]12C (some centres not stated)
3. CC1(C)CC[C@]2(C(=O)O)C(=O)C[C@]3(C)C(=CC[C@@H]4[C@@]5(C)CC[C@H](O[C@@H]6O[C@H](C(=O)O)[C@@H](O)[C@H](O)[C@H]6O)C(C)(C)[C@@H]5CC[C@]43C)[C@@H]2C1
4. CC1(C)CC[C@]2(O)C(=O)C[C@]3(C)C(=CC[C@@H]4[C@@]5(C)CCC(=O)C(C)(C)[C@@H]5CC[C@]43C)[C@@H]2C1

Response:
1: 68.9; 2: 68.9; 3: 72; 4: 68.9
